# test.protocol: Drug uptake in po dosed rat brain after 4 hrs by LC-MS/MS analysis
# Format: ADME, organism-based
# conditions: read-out: Drug uptake
metric: concentration at 4 h
Your answer should be a number followed by the unit of measure.

Challenge: Answer with reported concentration at 4 h of `O=C(C1CC1)N1CC2CC(C1)N2`
Response given: 20.2 ng/g

* * *

# test.protocol: Tmax in po dosed rat
# Format: ADME, organism-based
# conditions: in vivo
metric: Tmax (h)
Answer with a number only, understood to be in h.

Challenge: Answer with reported Tmax of `O=C(C1CC1)N1CC2CC(C1)N2`
Response given: 1

* * *

# test.protocol: Cmax in po dosed rat
# Type: ADME, organism-based
# Parameters: route oral
# conditions: in vivo
metric: Cmax (ng/mL)
Answer with a number only, understood to be in ng/mL.

Challenge: Answer with reported Cmax of `O=C(C1CC1)N1CC2CC(C1)N2`
Response given: 200

* * *

# test.protocol: Ratio of drug level in po dosed rat brain to plasma after 4 hrs by LC-MS/MS analysis
# Format: ADME, organism-based
# conditions: read-out: BPR
metric: Kp at 4 h
Keep it simple and answer with nothing but the number.

Challenge: Answer with reported Kp at 4 h of `O=C(C1CC1)N1CC2CC(C1)N2`
Response given: 0.32

* * *

# target: Neuronal acetylcholine receptor; alpha4/beta2 (Homo sapiens, UniProt P17787+P43681)
# Sequence (P17787 whole entry, canonical isoform): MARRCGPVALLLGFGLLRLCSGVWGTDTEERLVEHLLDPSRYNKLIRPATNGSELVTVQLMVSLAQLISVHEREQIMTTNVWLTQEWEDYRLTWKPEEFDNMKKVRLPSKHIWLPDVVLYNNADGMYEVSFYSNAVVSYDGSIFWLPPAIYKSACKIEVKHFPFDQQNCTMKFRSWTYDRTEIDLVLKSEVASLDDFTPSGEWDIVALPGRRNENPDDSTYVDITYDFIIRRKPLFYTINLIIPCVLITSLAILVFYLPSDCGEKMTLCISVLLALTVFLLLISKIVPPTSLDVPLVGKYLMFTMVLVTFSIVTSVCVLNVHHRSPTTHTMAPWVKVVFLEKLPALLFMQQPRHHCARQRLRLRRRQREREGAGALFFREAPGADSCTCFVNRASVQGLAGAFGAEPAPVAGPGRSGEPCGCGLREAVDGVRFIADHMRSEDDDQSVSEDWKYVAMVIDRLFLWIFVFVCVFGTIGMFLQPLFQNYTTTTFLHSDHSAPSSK
# Sequence (P43681 whole entry, canonical isoform): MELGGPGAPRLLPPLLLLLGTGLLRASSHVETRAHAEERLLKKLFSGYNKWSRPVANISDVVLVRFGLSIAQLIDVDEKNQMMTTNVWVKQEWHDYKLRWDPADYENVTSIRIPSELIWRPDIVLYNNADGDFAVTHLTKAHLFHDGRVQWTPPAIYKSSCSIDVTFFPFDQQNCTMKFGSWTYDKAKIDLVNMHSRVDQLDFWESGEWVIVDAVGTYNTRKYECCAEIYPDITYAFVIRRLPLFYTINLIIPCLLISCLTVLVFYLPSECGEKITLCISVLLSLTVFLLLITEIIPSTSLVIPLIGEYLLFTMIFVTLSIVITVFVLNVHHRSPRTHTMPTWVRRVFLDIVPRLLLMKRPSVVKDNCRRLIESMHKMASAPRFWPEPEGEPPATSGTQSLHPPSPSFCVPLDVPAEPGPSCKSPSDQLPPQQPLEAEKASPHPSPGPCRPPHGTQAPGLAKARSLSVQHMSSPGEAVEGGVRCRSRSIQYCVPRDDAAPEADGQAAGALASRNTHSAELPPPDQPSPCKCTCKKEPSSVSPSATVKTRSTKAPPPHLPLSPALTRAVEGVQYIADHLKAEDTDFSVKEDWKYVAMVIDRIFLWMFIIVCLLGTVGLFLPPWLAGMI
# test.protocol: Agonist activity at human alpha4beta2 nAChR transfected in SH-EP1 cells assessed as calcium flux by FLIPR assay
# Format: cell-based
pEC50: −log10 of the molar value.
Quick rule: pEC50 of at least 6 means 1, below that means -1.

Challenge: Would you say `O=C(C1CCC1)N1CC2CC(C1)N2` shows pEC50 at minimum 6?
Response given: -1

Challenge: Would you say O=C(CC1C=CCC1)N1CC2CC(C1)N2 (centres undefined) shows pEC50 at minimum 6?
Response given: -1

Challenge: Would you say `O=C([C@H]1C[C@H]1F)N1CC2CC(C1)N2` shows pEC50 at minimum 6?
Response given: 1

Challenge: Would you say CC1(C)CC1C(=O)N1CC2CC(C1)N2 (centres undefined) shows pEC50 at minimum 6?
Response given: -1

Challenge: Would you say `CC(C)C(=O)N1CC2CC(C1)N2` shows pEC50 at minimum 6?
Response given: -1

Challenge: Would you say `O=C(C1CC1)N1CC2CC(C1)N2` shows pEC50 at minimum 6?
Response given: 1

Challenge: Would you say `O=C([C@@H]1C[C@H]1F)N1CC2CC(C1)N2` shows pEC50 at minimum 6?
Response given: 1

Challenge: Would you say `C[C@H]1C[C@H]1C(=O)N1CC2CC(C1)N2` shows pEC50 at minimum 6?
Response given: -1

Challenge: Would you say `O=C(C1CCCC1)N1CC2CC(C1)N2` shows pEC50 at minimum 6?
Response given: -1

Challenge: Would you say `CCC(=O)N1CC2CC(C1)N2` shows pEC50 at minimum 6?
Response given: 1

Challenge: Would you say `O=C([C@@H]1C[C@@H]1F)N1CC2CC(C1)N2` shows pEC50 at minimum 6?
Response given: 1

Challenge: Would you say `C[C@@H]1C[C@@H]1C(=O)N1CC2CC(C1)N2` shows pEC50 at minimum 6?
Response given: -1

Challenge: Would you say `CCCC(=O)N1CC2CC(C1)N2` shows pEC50 at minimum 6?
Response given: 1

Challenge: Would you say `CC(=O)N1CC2CC(C1)N2` shows pEC50 at minimum 6?
Response given: -1

Challenge: Would you say `O=C(C1CC=CC1)N1CC2CC(C1)N2` shows pEC50 at minimum 6?
Response given: -1

Challenge: Would you say `C[C@@H]1C[C@H]1C(=O)N1CC2CC(C1)N2` shows pEC50 at minimum 6?
Response given: 1

Challenge: Would you say `C[C@H]1C[C@@H]1C(=O)N1CC2CC(C1)N2` shows pEC50 at minimum 6?
Response given: -1

* * *

# target: Neuronal acetylcholine receptor; alpha3/alpha6/beta2/beta3 (Homo sapiens) (UniProt P17787+P32297+Q15825+Q05901)
# test.protocol: Agonist activity at human alpha6/alpha3beta2beta3 nAChR transfected in CHO cells assessed as calcium flux by FLIPR assay relative to control
# Type: cell-based
Param label: returns fulfilled when Emax < 90%, returns not fulfilled otherwise, including exact equality.

Challenge: Hello, is Emax of the following compound strictly smaller than 90%? `CCC(=O)N1CC2CC(C1)N2`
Response given: not fulfilled

Challenge: Hello, is Emax of the following compound strictly smaller than 90%? `O=C([C@@H]1C[C@H]1F)N1CC2CC(C1)N2`
Response given: not fulfilled

Challenge: Hello, is Emax of the following compound strictly smaller than 90%? `O=C([C@H]1C[C@@H]1F)N1CC2CC(C1)N2`
Response given: fulfilled

Challenge: Hello, is Emax of the following compound strictly smaller than 90%? `O=C(C1CC1)N1CC2CC(C1)N2`
Response given: not fulfilled

Challenge: Hello, is Emax of the following compound strictly smaller than 90%? `C[C@@H]1C[C@@H]1C(=O)N1CC2CC(C1)N2`
Response given: fulfilled

Challenge: Hello, is Emax of the following compound strictly smaller than 90%? `CC(C)C(=O)N1CC2CC(C1)N2`
Response given: fulfilled

Challenge: Hello, is Emax of the following compound strictly smaller than 90%? `C[C@@H]1C[C@H]1C(=O)N1CC2CC(C1)N2`
Response given: not fulfilled

Challenge: Hello, is Emax of the following compound strictly smaller than 90%? `C[C@H]1C[C@@H]1C(=O)N1CC2CC(C1)N2`
Response given: fulfilled

Challenge: Hello, is Emax of the following compound strictly smaller than 90%? CC1(C)CC1C(=O)N1CC2CC(C1)N2 (centres undefined)
Response given: fulfilled

Challenge: Hello, is Emax of the following compound strictly smaller than 90%? `O=C(C1CCC1)N1CC2CC(C1)N2`
Response given: fulfilled

Challenge: Hello, is Emax of the following compound strictly smaller than 90%? `O=C([C@@H]1C[C@@H]1F)N1CC2CC(C1)N2`
Response given: not fulfilled

Challenge: Hello, is Emax of the following compound strictly smaller than 90%? O=C(CC1C=CCC1)N1CC2CC(C1)N2 (centres undefined)
Response given: fulfilled

Challenge: Hello, is Emax of the following compound strictly smaller than 90%? `O=C([C@H]1C[C@H]1F)N1CC2CC(C1)N2`
Response given: not fulfilled

* * *

# target: Neuronal acetylcholine receptor; alpha3/alpha6/beta2/beta3 (Homo sapiens, UniProt P17787+P32297+Q05901+Q15825)
# Sequence (P17787 whole entry): as the sequence (P17787 whole entry, canonical isoform) above
# Sequence (P32297 whole entry): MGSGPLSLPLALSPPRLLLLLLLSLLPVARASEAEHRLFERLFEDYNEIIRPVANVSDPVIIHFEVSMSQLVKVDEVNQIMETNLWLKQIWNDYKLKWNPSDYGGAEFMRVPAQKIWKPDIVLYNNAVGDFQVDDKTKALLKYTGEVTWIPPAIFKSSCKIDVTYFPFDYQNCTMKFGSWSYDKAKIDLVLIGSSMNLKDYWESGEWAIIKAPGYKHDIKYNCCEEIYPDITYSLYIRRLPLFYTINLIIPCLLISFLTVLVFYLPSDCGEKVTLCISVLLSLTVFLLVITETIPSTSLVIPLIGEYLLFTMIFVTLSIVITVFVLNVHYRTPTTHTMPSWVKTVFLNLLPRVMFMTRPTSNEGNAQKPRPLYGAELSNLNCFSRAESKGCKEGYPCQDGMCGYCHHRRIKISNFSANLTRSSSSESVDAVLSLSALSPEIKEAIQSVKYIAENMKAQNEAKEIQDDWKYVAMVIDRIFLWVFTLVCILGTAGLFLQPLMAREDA
# Sequence (Q15825 whole entry): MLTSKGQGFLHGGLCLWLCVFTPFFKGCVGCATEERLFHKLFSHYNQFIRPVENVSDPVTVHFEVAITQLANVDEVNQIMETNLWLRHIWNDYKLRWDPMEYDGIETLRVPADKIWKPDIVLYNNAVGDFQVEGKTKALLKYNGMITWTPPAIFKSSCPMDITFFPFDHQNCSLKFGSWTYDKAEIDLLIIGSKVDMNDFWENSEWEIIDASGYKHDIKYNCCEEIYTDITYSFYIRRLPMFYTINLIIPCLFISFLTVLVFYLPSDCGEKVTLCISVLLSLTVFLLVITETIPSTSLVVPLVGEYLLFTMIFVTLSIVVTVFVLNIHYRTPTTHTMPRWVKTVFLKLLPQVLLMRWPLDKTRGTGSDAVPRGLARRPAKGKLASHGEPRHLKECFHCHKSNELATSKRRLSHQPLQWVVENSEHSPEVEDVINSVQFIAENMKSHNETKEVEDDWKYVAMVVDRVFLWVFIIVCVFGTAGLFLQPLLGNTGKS
# Sequence (Q05901 whole entry): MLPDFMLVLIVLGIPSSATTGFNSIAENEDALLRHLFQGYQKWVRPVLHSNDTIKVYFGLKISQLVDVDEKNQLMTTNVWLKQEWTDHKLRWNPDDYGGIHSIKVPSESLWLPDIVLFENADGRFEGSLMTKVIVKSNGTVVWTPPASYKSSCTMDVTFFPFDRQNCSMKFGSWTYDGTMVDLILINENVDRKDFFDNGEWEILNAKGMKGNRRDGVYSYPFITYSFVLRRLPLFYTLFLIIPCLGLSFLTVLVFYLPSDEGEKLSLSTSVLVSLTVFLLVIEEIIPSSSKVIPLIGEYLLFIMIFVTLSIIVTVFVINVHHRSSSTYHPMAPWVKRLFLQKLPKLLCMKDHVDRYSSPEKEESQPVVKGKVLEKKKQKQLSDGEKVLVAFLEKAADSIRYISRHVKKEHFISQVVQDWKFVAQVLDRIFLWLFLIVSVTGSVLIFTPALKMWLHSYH
# test.protocol: Displacement of [3H]epibatidine from human alpha6/alpha3beta2beta3 nAChR transfected in CHO cells by liquid scintillation counting
metric: pKi
Scale note: pKi = -log10(concentration in M).

Challenge: Answer with reported pKi of O=C(C1CC1(F)F)N1CC2CC(C1)N2 (stereo not drawn)
Response given: 7.12

Challenge: Answer with reported pKi of `CCC(=O)N1CC2CC(C1)N2`
Response given: 6.72

Challenge: Answer with reported pKi of CC1(C)CC1C(=O)N1CC2CC(C1)N2 (stereo not drawn)
Response given: 6.60

Challenge: Answer with reported pKi of O=C(C1CC1)N1CC2CC1CN2 (stereo not drawn)
Response given: 5.00

Challenge: Answer with reported pKi of O=C(CC1C=CCC1)N1CC2CC(C1)N2 (stereo not drawn)
Response given: 5.60

Challenge: Answer with reported pKi of `O=C([C@@H]1C[C@@H]1F)N1CC2CC(C1)N2`
Response given: 7.26

Challenge: Answer with reported pKi of `C[C@H]1C[C@H]1C(=O)N1CC2CC(C1)N2`
Response given: 6.77

Challenge: Answer with reported pKi of `O=C([C@H]1C[C@@H]1F)N1CC2CC(C1)N2`
Response given: 6.31

* * *

# target: Neuronal acetylcholine receptor; alpha4/beta2 (Homo sapiens, UniProt P17787+P43681)
# test.protocol: Agonist activity at human alpha4beta2 nAChR high sensitivity isoform transfected in SH-EP1 cells assessed as calcium flux by FLIPR assay relative to control
# Format: cell-based
metric: Emax (%)
Answer with a number only, understood to be in %.

Challenge: Answer with reported Emax of `C[C@@H]1C[C@H]1C(=O)N1CC2CC(C1)N2`
Response given: 110

Challenge: Answer with reported Emax of `CC(C)C(=O)N1CC2CC(C1)N2`
Response given: 71

Challenge: Answer with reported Emax of `O=C(C1CCCC1)N1CC2CC(C1)N2`
Response given: 68

Challenge: Answer with reported Emax of O=C(CC1C=CCC1)N1CC2CC(C1)N2 (centres undefined)
Response given: 94

Challenge: Answer with reported Emax of `O=C(C1CC=CC1)N1CC2CC(C1)N2`
Response given: 95

Challenge: Answer with reported Emax of `O=C([C@H]1C[C@@H]1F)N1CC2CC(C1)N2`
Response given: 100

Challenge: Answer with reported Emax of `CC(=O)N1CC2CC(C1)N2`
Response given: 95

Challenge: Answer with reported Emax of `O=C(C1CCC1)N1CC2CC(C1)N2`
Response given: 99

Challenge: Answer with reported Emax of `O=C([C@H]1C[C@H]1F)N1CC2CC(C1)N2`
Response given: 110

Challenge: Answer with reported Emax of CC1(C)CC1C(=O)N1CC2CC(C1)N2 (centres undefined)
Response given: 92

Challenge: Answer with reported Emax of `O=C(C1CC1)N1CC2CC(C1)N2`
Response given: 110

Challenge: Answer with reported Emax of `O=C([C@@H]1C[C@@H]1F)N1CC2CC(C1)N2`
Response given: 110

Challenge: Answer with reported Emax of `C[C@H]1C[C@H]1C(=O)N1CC2CC(C1)N2`
Response given: 93

Challenge: Answer with reported Emax of `C[C@@H]1C[C@@H]1C(=O)N1CC2CC(C1)N2`
Response given: 97

Challenge: Answer with reported Emax of `O=C([C@@H]1C[C@H]1F)N1CC2CC(C1)N2`
Response given: 110

Challenge: Answer with reported Emax of `CCCC(=O)N1CC2CC(C1)N2`
Response given: 110

Challenge: Answer with reported Emax of O=C(C1CC1(F)F)N1CC2CC(C1)N2 (centres undefined)
Response given: 100

Challenge: Answer with reported Emax of `C[C@H]1C[C@@H]1C(=O)N1CC2CC(C1)N2`
Response given: 85

Challenge: Answer with reported Emax of `CCC(=O)N1CC2CC(C1)N2`
Response given: 110
